Examples of compounds with documented Percent Effect follow.
MEASUREMENT_TARGET: Tyrosyl-tRNA synthetase, putative (Trypanosoma cruzi (strain CL Brener))
ASSAY_REMARKS: Trypanosoma cruzi tyrosyl tRNA synthetase (TcYRS) SOP
Type: functional
Set-up: scale not given: direction of the effect not stated beside the values
CONDITIONS_USED: 30 µM
Quick note: give the figure in %, leave out the unit.

Looking for the measured Percent Effect of CN(CCCNC(=O)N1CCCC1c1ccsc1)c1ccccn1 (centres undefined) , can you help? 19.5

Entry to check: CC1CCN(CCNC(=O)C2CCN(S(N)(=O)=O)CC2)CC1 5.13

Entry to check: COc1ccc(NC(=O)NC(C)(C)c2noc(C)n2)cc1 12.5

Entry to check: Cc1cc(-c2cnn(CCNC(=O)C3CCCO3)c2C2CC2)on1 (centres undefined) 11.7

Entry to check: Cc1nn(C)c(N2CCOCC2)c1CNC1CCN(C(C)(C)C)CC1 16.5

* * *

Examples of molecules with documented Percent Effect follow.
System: Trypanosoma cruzi
ASSAY_REMARKS: Trypanosoma cruzi phosphomannomutase and mannose-1-phosphate guanylyltransferase assay
Format: functional
Design: scale not given: direction of the effect not stated beside the values
CONDITIONS_USED: 10 µM
Quick note: give the figure in %, leave out the unit.

Reference set (5 entries):
Cc1cc2n(n1)CC(CNCc1cnn(-c3ccccc3)c1)CN2 (stereo not drawn)    2.26
Cc1cccc(NC(=O)Cn2ncc(SCC(N)=O)c(Cl)c2=O)c1C    -4.31
COc1cccc(S(=O)(=O)CCN2CCC3(CC2)OCCO3)c1    3.99
CC(C)c1nn(C)c(N2CCOCC2)c1CNC(C)c1cccs1 (stereo not drawn)    -2.71
CC(C)c1ccc(OCn2ccc(C(=O)N3CCCC3)n2)cc1    6.2

Looking for the measured Percent Effect of CC(=O)c1cccc(S(=O)(=O)N2CSCC2C(=O)NCC(F)(F)F)c1 (stereo not drawn) , can you help? -0.103

Entry to check: c1cc(CNCc2ccc3c(c2)CCO3)cc(N2CCOCC2)n1 -3.03

Entry to check: Cn1cc(CN2CCCn3cnc(COCC4CC4)c3C2)cn1 6.95

Entry to check: Cc1cccc(COC[C@H]2CC[C@H]3[C@H](CCN3C(=O)CC3CC3)O2)n1 -1.57

Entry to check: Cc1n[nH]c(C)c1NC(=O)CN1CCCC(CNC(=O)C(C)(C)C)C1 (stereo not drawn) -0.188

Entry to check: O=C1CCCc2cc(-c3csc(CCN4CCOC4=O)n3)ccc2N1 4.12

* * *

Organism: Homo sapiens
ASSAY_REMARKS: To identify inhibition of the IFN signalling (Jak-Stat) pathway via expression of an eGFP reporter gene under the control of an IFN-stimulated response element (ISRE) containing MxA promoter.
Assay type: functional
Parameters: scale not given: direction of the effect not stated beside the values
CONDITIONS_USED: 30 µM
EXPERIMENTAL_ENDPOINT: Percent Effect (%)
Quick note: give the figure in %, leave out the unit.

O=C(N1CCCO1)[C@@]12CCO[C@@H]1CCN(C1CCCCC1)C2    -2.54
Cc1ccc2c(c1)c(CNC(=O)C1CC(=O)N(C3CCCC3)C1)nn2C (centres undefined)    10
O=C(CCOCc1ccccc1)N1CCCC1c1noc(C2CC2)n1 (centres undefined)    4.41
CC1CN(Cc2noc(C3CC3)n2)CCN1Cc1nccn1C (centres undefined)    8.77
Cn1cnc(S(=O)(=O)N2CCCC2)c1Cl    -29.7

Looking for the measured Percent Effect of Cc1nn(C)c2cnn(C(C)C(=O)NCc3cccnc3)c12 (centres undefined) , can you help? 17.9

Entry to check: Cc1noc2ncc(C(=O)NCC3CCOC3)cc12 (centres undefined) 26.5

Entry to check: COc1ccc(CNC(=O)NCc2c(C)cc(C)[nH]c2=O)cc1 -18.2

Entry to check: CCc1nc(CC(=O)N2CCn3c(nnc3C(C)C)C2)cs1 -11.4

Entry to check: Cc1noc([C@@H]2CC[C@@H]3[C@@H](CCN3S(=O)(=O)c3cccnc3)O2)n1 3.62

Entry to check: Cc1cc(N2CCN(Cc3ccc(C)o3)CC2)cc(C)n1 2.05

Entry to check: O=C1CC(c2ccccc2)C2(CCN(CC3CC3)CC2)N1 (centres undefined) 0.446

Entry to check: Cc1cc(C)c(CNC(=O)NCc2ccc3c(c2)CCC3)c(=O)[nH]1 4.84

Entry to check: COCCC1COC2(CCN(C(=O)c3ccco3)CC2)C1 (centres undefined) 0.48

Entry to check: COc1ccccc1C(=O)N1CCCC1Cn1cc(C)cn1 (centres undefined) -3.42

Entry to check: COC(=O)N1CCCN(C(=O)NCc2ccc(Cl)s2)CC1 19.3

Entry to check: Cc1cc(C)n(CC2CCCCN2CC(=O)Nc2cccnc2)n1 (centres undefined) 6.67

* * *

MEASUREMENT_TARGET: AMP-activated protein kinase, AMPK (Homo sapiens) (UniProt P54646+O43741+P54619+Q9UGJ0+Q9Y478+Q13131+Q9UGI9)
ASSAY_REMARKS: AMP-dependent Kinase enzyme assay. An in vitro enzyme assay that detects ADP turnover that is directly proportional to AMPK activity. This uses naive AMPK that is activated during the assay with MK-8722
Assay type: functional
Design: scale not given: direction of the effect not stated beside the values
CONDITIONS_USED: 30 µM
EXPERIMENTAL_ENDPOINT: Percent Effect (%)
Quick note: give the figure in %, leave out the unit.

Reference set (3 entries):
Cc1ccc(C(=O)N2C[C@@H]3COC[C@]3(COc3cccnc3)C2)cn1    0.636
Cc1nn(C)c(Cl)c1C1CCCN1C(=O)c1nccnc1N (stereo unspecified)    -10.8
CNS(=O)(=O)c1cccc(CNc2nccc(C(F)(F)F)n2)c1    14.6

Looking for the measured Percent Effect of CNS(=O)(=O)Cc1ccc(CNC(=O)c2cccc(C)n2)cc1 , can you help? 0.0556

Entry to check: CC(C)c1nc(CN(C)CC2CCN(CCO)CC2)no1 -3.56

Entry to check: CNc1oc(-c2cc(S(=O)(=O)N3CCCCCC3)c(C)o2)nc1C#N 2.78

* * *

Examples of compounds with documented Percent Effect follow.
System: Trypanosoma cruzi
ASSAY_REMARKS: Trypanosoma cruzi phosphomannomutase and mannose-1-phosphate guanylyltransferase assay
Assay type: functional
Design: scale not given: direction of the effect not stated beside the values
CONDITIONS_USED: 10 µM

O=C(CN1CCC(c2cccc(F)c2)C1)NCC(F)(F)F (centres undefined)    3.57%
Cc1nc(C2CCCN2Cc2nnc(C3CC3)o2)no1 (centres undefined)    -1.21%
CCn1cc(NC(=O)NCC2(N3CCOCC3)CCSC2)cn1 (centres undefined)    1.74%
CCn1cnnc1CNC(=O)N1CCCN(C(C)=O)CC1    0.881%

Looking for the measured Percent Effect of CC(NC(=O)C1=NN(C)C(=O)CC1)c1ccc(Cl)cc1Cl (centres undefined) , can you help? 2.74%

Entry to check: O=C(NCc1cc[nH]n1)NC1CCCN(c2ncccn2)C1 (centres undefined) -4.58%

Entry to check: CCc1ccc(C(=O)N2CCN(CC(C)O)CC2)o1 (centres undefined) 5.08%

Entry to check: CC(C)CS(=O)(=O)N1C[C@H]2C[C@H](C(=O)NCc3ccccc3)[C@@H](C1)O2 -10%

Entry to check: O=C(Cc1cccs1)N1C[C@@H]2COC[C@]2(COc2cccnc2)C1 7.62%

Entry to check: O=C(CN1CCCC1Cn1cncn1)NCCOc1cccc(F)c1 (centres undefined) -0.84%

* * *

Examples of compounds with documented Percent Effect follow.
MEASUREMENT_TARGET: Chromo domain-containing protein 1 (Saccharomyces cerevisiae (strain ATCC 204508 / S288c) (Baker's yeast)) (UniProt P32657)
Sequence (P32657 whole entry, the tested form may be a part): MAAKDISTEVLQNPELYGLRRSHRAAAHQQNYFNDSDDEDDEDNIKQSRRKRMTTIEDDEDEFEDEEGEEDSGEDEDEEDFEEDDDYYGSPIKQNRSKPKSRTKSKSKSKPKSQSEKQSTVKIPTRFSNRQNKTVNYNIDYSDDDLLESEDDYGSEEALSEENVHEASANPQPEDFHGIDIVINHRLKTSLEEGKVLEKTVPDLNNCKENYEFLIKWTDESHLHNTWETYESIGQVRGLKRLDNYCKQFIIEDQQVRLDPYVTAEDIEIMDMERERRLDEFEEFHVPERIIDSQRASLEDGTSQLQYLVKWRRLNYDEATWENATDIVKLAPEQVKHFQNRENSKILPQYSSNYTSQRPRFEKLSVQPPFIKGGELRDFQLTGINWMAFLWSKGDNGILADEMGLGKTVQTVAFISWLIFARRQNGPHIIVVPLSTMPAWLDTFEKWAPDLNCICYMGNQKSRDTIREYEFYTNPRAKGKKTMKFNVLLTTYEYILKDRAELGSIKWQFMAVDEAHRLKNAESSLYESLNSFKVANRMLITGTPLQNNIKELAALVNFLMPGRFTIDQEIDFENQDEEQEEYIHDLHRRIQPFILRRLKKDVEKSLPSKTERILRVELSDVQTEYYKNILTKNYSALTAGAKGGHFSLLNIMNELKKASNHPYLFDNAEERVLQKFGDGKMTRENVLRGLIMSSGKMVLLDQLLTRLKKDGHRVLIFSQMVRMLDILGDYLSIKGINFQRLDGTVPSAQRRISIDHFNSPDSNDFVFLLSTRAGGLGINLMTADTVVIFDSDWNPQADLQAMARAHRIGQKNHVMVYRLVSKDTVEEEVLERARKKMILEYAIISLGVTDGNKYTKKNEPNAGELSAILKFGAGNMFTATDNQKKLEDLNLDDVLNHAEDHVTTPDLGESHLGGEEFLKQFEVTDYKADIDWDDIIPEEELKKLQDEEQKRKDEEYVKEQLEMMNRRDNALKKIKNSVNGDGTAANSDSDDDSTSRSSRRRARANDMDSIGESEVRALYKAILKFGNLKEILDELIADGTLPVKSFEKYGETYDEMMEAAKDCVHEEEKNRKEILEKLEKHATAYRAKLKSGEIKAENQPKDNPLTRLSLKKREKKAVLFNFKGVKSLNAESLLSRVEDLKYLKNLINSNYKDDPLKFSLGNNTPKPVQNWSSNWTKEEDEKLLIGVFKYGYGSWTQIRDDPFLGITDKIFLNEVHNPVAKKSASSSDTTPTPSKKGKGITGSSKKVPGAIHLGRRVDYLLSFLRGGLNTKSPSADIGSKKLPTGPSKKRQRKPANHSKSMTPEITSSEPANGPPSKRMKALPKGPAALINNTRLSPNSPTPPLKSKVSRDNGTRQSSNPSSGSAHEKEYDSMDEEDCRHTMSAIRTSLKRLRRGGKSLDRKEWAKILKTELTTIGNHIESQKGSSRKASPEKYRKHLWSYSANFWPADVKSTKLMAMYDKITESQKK
ASSAY_REMARKS: ScCHD-1 Enzyme Inhibition Assay; also: in the data most compounds retested in dose-response had high values
Format: functional
Set-up: scale not given: direction of the effect not stated beside the values
CONDITIONS_USED: 30 µM
Please answer using a numeric value trailed by its unit.

Reference set (4 entries):
CC(C)NC(=O)N1CCC2(CC(C(=O)NCc3cccnc3)=NO2)C1 (stereo unspecified)    1.61%
CCc1ncc(CN(C)C(=O)Nc2cccnc2N2CCCC2)s1    -1.2%
CCC(=O)Nc1nnc(CCOc2cccc(OC)c2)s1    -2%
CCN(Cc1cccc(Cl)c1)Cn1nc(C)c2c(C)onc2c1=O    -6.67%

Looking for the measured Percent Effect of CC(C)CN(C)c1ccc(C(=O)N2CCCC2c2cnn(C)c2)cn1 (stereo unspecified) , can you help? -10.4%

Entry to check: CCOC(CC)C(=O)NCc1ccnc(Oc2ccc(F)cc2)c1 (stereo unspecified) -1.51%

* * *

Examples of compounds with documented Percent Effect follow.
MEASUREMENT_TARGET: Chromo domain-containing protein 1 (Saccharomyces cerevisiae (strain ATCC 204508 / S288c) (Baker's yeast))
ASSAY_REMARKS: ScCHD-1 Enzyme Inhibition Assay; also: in the data most compounds retested in dose-response had high values
Assay type: functional
Set-up: scale not given: direction of the effect not stated beside the values
CONDITIONS_USED: 30 µM
Quick note: give the figure in %, leave out the unit.

Reference set (3 entries):
O=C(COCc1nc(-c2ccncc2)no1)NC1CCCCC1    -2.34
CC(C)c1cc(C(=O)N2CCN(Cc3ccsc3)CC2)n[nH]1    -3.72
O=C(c1ccc[nH]1)N1CCc2c(COCC3CC3)cncc2C1    0.2

Looking for the measured Percent Effect of Cc1cc(C)n(CC2CCCN2C(=O)CCCc2ccccn2)n1 (configuration not stated) , can you help? -3.06

Entry to check: Cc1cc(C)c2nc(CN3CCOC(CCO)C3)cc(O)c2c1 (configuration not stated) -1.34
